# System: ducksalad (Heteranthera limosa)
# assay_remarks: Test C flooded paddy test: ducksalad
# Assay type: in vivo
# measurement_setup: Flood (flooded paddy test), 125 g ai/ha; visual rating after 13 to 15 days, scale 0 to 100 (0 no effect, 100 complete control)
Below: a set of entries, each annotated with reported Plant response rating, Ducksalad.
test_readout: Plant response rating, Ducksalad

>  <compound>
Cc1nn(-c2ccccc2[N+](=O)[O-])nc1C(=O)c1cccc(C(F)(F)F)c1 [Compound 63]

>  <observed_measurement>
0

$$$$
>  <compound>
Cc1nn(-c2ccc(Br)cc2)nc1C(=O)c1cccc(C(F)(F)F)c1 [Compound 92]

>  <observed_measurement>
0

$$$$
>  <compound>
Cc1nn(-c2ccc(C(F)(F)F)cc2)nc1Oc1cnn(CC(F)(F)F)c1 [Compound 74]

>  <observed_measurement>
0

$$$$

* * *

# System: galium (catchweed bedstraw, Galium aparine)
# assay_remarks: Test C pre-/postemergence: galium
# Assay type: in vivo
# measurement_setup: Preemergence, 62 g ai/ha; scale of 0 to 100, 0 is no effect, 100 is complete control

>  <compound_smiles>
CCCc1nn(-c2ccc(F)cc2)nc1Cc1ccnc(C(F)(F)F)c1

>  <Plant response rating, Galium>
98

$$$$
>  <compound_smiles>
Cc1nn(-c2ccc(F)cc2)nc1Cc1ccnc(C(F)(F)F)c1

>  <Plant response rating, Galium>
100

$$$$
>  <compound_smiles>
Fc1ccc(-n2nc(Cc3ccnc(C(F)(F)F)c3)c(OCC(F)(F)F)n2)cc1

>  <Plant response rating, Galium>
80

$$$$
>  <compound_smiles>
CCCc1nn(-c2ccc(C(F)(F)F)c(F)c2)nc1Oc1ccnc(C(F)(F)F)c1

>  <Plant response rating, Galium>
100

$$$$
>  <compound_smiles>
CCc1nn(-c2ccc(F)cc2)nc1Oc1ccnc(C(F)(F)F)c1

>  <Plant response rating, Galium>
10

$$$$
>  <compound_smiles>
Cc1nn(-c2ccc(F)c(F)c2)nc1Oc1ccnc(C(F)(F)F)c1

>  <Plant response rating, Galium>
98

$$$$

* * *

// values below are reported Plant response rating, Corn
# Tested on: corn (Zea mays)
# assay_remarks: Test A pre-/postemergence: corn
# Type: in vivo
# measurement_setup: Preemergence, 500 g ai/ha; 0 to 100 scale, 0 is no effect, 100 is complete control

>  <compound_smiles>
Cc1nn(-c2ccc(C(F)(F)F)cc2)nc1Oc1ccccc1Cl

>  <Plant response rating, Corn>
0

$$$$
>  <compound_smiles>
Cc1nn(-c2ccc(C(F)(F)F)cn2)nc1Cn1ccc(C(F)(F)F)n1

>  <Plant response rating, Corn>
30

$$$$
>  <compound_smiles>
Cc1nn(-c2ccccc2I)nc1C(=O)c1cccc(C(F)(F)F)c1

>  <Plant response rating, Corn>
0

$$$$
>  <compound_smiles>
CSc1ccc(-n2nc(C)c(C(=O)c3cccc(C(F)(F)F)c3)n2)cc1

>  <Plant response rating, Corn>
0

$$$$
>  <compound_smiles>
Cc1nn(-c2ccnc(Cl)c2)nc1C(=O)c1cccc(C(F)(F)F)c1

>  <Plant response rating, Corn>
0

$$$$

* * *

# System: wheat (Triticum aestivum)
# assay_remarks: Test A pre-/postemergence: wheat
# Assay type: in vivo
# measurement_setup: Postemergence, 125 g ai/ha; 0 to 100 scale, 0 is no effect, 100 is complete control
test_readout: Wheat plant response rating

>  <compound_smiles>
Cc1nn(-c2ccccc2I)nc1C(=O)c1cccc(C(F)(F)F)c1

>  <observed_measurement>
0

$$$$
>  <compound_smiles>
CCc1nn(-c2ccc(C(F)(F)F)cn2)nc1Cc1cccc(C(F)(F)F)c1

>  <observed_measurement>
20

$$$$
>  <compound_smiles>
COc1nn(-c2ccc(C(F)(F)F)cc2)nc1C(=O)c1ccnc(C(F)(F)F)c1

>  <observed_measurement>
0

$$$$
>  <compound_smiles>
CSc1ccc(-n2nc(C)c(C(=O)c3cccc(C(F)(F)F)c3)n2)cc1

>  <observed_measurement>
0

$$$$
>  <compound_smiles>
Cc1nn(-c2ccc(C(F)(F)F)cc2)nc1Oc1ccc(Cl)c(C(F)(F)F)c1

>  <observed_measurement>
0

$$$$
>  <compound_smiles>
Cc1nn(-c2cnc(Cl)cn2)nc1C(=O)c1cccc(C(F)(F)F)c1

>  <observed_measurement>
0

$$$$
>  <compound_smiles>
Cc1nn(-c2ccc(C(F)(F)F)cc2)nc1Cn1ccc(C(F)(F)C(F)(F)F)n1

>  <observed_measurement>
10

$$$$
>  <compound_smiles>
Cc1nn(-c2ccc(F)cc2)nc1Oc1ccc(F)c(C(F)(F)F)c1

>  <observed_measurement>
10

$$$$
